# Organism: Rattus norvegicus
# assay-name: DrugMatrix - Regimen: Daily Repeat
# Type: toxicity, organism-based, Sprague-Dawley
# Design: regimen Daily Repeat, gender Male, age 6-8 weeks
# condition-label: in vivo, po, 0 mg/kg, 72 h, tissue Plasma, route oral GAVAGE, dose level Control, time 3 day, vehicle .5 % CMC
Please mark rule met if the recorded ALKALINE PHOSPHATASE is equal to or greater than 400 u/L, and rule not met if it falls below.

# example entries with known answers
input: Confirm if ALKALINE PHOSPHATASE reported for the compound "CC(C)[C@H](N)C(=O)OCCOCn1cnc2c(=O)[nH]c(N)nc21" is 400 u/L or above.
output: rule not met

input: Hello, I need to know if "Brc1ccccc1" has measured ALKALINE PHOSPHATASE not below 400 u/L. Thanks!
output: rule met

input: Evaluate "C=C1CC[C@H](O)C/C1=C/C=C1\CCC[C@]2(C)[C@@H]([C@H](C)/C=C/[C@H](C)C(C)C)CC[C@@H]12" : ALKALINE PHOSPHATASE at minimum 400 u/L?
output: rule met

input: Does ALKALINE PHOSPHATASE meet or surpass 400 u/L for "CC(/C=C1\SC(=S)N(CC(=O)O)C1=O)=C\c1ccccc1" ?
output: rule met

input: Is ALKALINE PHOSPHATASE at least 400 u/L? Consider "CCC[C@@H]1C[C@@H](C(=O)N[C@@H]([C@H]2O[C@H](SC)[C@H](O)[C@@H](O)[C@H]2O)[C@@H](C)O)N(C)C1"
output: rule not met

Now let's try a different one.
input: Does ALKALINE PHOSPHATASE meet or surpass 400 u/L for COc1c(C)c2c(c(O)c1C/C=C(\C)CCC(=O)OCCN1CCOCC1)C(=O)OC2 [MYCOPHENOLATE MOFETIL] ?
output: rule met
